- targetEntity: T1, HLA-A*02:01 (human)
- T1 construct: monomers captured on streptavidin plates; also called MHC class I
- testName: UV peptide exchange ELISA
readoutLabel: peptide exchange yield

Before answering, review these 10 worked examples.
| binder | peptide exchange yield |
| --- | --- |
| TLLAFIMEL | 50 to 75% |
| SMAELDIKL | 50 to 75% |
| FMVDNEAIYDI | ≥ 75% |
| YLFENISQL | 50 to 75% |
| GLLEAKVSL | 50 to 75% |
| LLADVVPTT | 50 to 75% |
| YLFPGIPEL | 50 to 75% |
| SMIDDLLGV | 50 to 75% |
| FLSPQQPPLLL | 20 to 50% |
| ALYDVFLEV | 20 to 50% |

Proceed to the following item.
// recorded peptide exchange yield for VLLSIYPRV : 50 to 75%
